# Test system: NCI-H522 lung
# Assay method text: NCI tumour cell line growth inhibition, 48 h
Reported TGI is given for each of the following compounds.

INSERT INTO results (compound, result) VALUES
  ('CN1C(C)(C)CC(=O)C(Br)C1(C)C (stereo not given)', '> 100 µM');

-- ask Annotate the compound `O=C1NC(=O)C(c2ccccc2)=C1Nc1ccccc1` with its measured TGI.
-- reply > 25 µM

-- ask Annotate the compound COC1=CC(=O)c2c(cc3c(c2O)-c2c(OC)cc4cc5c(c(O)c4c2OC(=O)CC(C)(O)C3)C(=O)CC(C)(O)C5)C1=O (stereo not given) with its measured TGI.
-- reply 2.67 µM

-- ask Annotate the compound C=C1c2[nH]c3ccccc3c2CC(C(=O)O)N1C(O)c1ccc(S(=O)(=O)O)cc1 (stereo not given) with its measured TGI.
-- reply > 100 µM

-- ask Annotate the compound `CC1(C)SCc2nc3ccccc3n21` with its measured TGI.
-- reply > 100 µM
